assay: Clearance in Wistar rat at 1 mg/kg, iv; format: ADME, organism-based; design: dose 1 mg/kg, route intravenous; details: in vivo
MEASUREMENT_LABEL: clearance (mL/min/kg)
Write it as a number; the unit mL/min/kg goes unstated.

Qu. May I ask what clearance has been recorded for `CCCNS(=O)(=O)Nc1ncnc(OCCOc2ncc(Br)cn2)c1-c1ccc(Br)cc1` ?
Ans. 6.7

* * *

assay: Tmax in beagle dog at 10 mg/kg, po; assay type: ADME, organism-based, Canis lupus familiaris; set-up: dose 10 mg/kg, route oral; conditions: in vivo
MEASUREMENT_LABEL: Tmax (h)
Write it as a number; the unit h goes unstated.

Qu. May I ask what Tmax has been recorded for `CCCNS(=O)(=O)Nc1ncnc(OCCOc2ncc(Br)cn2)c1-c1ccc(Br)cc1` ?
Ans. 2
